Target: FNT wild-type (Plasmodium falciparum)
Construct: expressed in transfected cells; host or cells: Saccharomyces cerevisiae W303-1A jen1Δ ady2Δ, plasmid pDR196 (PMA promoter)
Sequence (O77389 whole entry): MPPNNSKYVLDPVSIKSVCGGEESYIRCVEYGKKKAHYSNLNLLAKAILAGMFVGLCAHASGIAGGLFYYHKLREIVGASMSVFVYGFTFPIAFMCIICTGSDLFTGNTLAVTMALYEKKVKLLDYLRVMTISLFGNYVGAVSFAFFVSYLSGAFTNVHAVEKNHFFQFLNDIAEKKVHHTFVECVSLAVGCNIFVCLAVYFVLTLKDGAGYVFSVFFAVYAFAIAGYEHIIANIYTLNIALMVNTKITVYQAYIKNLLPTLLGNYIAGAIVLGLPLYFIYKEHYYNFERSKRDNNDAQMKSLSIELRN
Assay: yeast test system, 14C-L-lactate uptake, FNT wild-type expressed in Saccharomyces cerevisiae
Format: cell-based
Details: preincubation 20 min; read-out: IC50 of lactate transport
pIC50: −log10 of the molar value.
MEASURED METRIC: pIC50

MOLECULE	TESTED ON	NUMBER
COc1ccc2c(c1)OC(O)(C(F)(F)C(F)(F)F)CC2=O (stereo not shown) [MMV007839, reference compound]	FNT wild-type (Plasmodium falciparum)	6.77

* * *

Biological target: Gly107Ser mutant of FNT (Plasmodium falciparum, UniProt O77389, G107S)
Construct: expressed in transfected cells; host or cells: Saccharomyces cerevisiae W303-1A jen1Δ ady2Δ, plasmid pDR196 (PMA promoter)
Sequence (O77389 whole entry G107S): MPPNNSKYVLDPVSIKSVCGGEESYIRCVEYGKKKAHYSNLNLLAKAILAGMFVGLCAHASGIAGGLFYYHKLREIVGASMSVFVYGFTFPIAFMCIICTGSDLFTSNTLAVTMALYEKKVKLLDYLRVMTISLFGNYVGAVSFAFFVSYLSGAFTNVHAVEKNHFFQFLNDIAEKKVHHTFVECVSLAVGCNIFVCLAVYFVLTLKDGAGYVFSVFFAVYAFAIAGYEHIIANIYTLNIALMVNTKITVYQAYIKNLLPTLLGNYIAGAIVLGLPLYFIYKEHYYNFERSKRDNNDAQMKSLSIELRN
Assay: yeast test system, 14C-L-lactate uptake, FNT Gly107Ser mutant expressed in Saccharomyces cerevisiae
Type: cell-based
Details: yeast test system; 15 to 20 min preincubation, 1 mM lactate, pH 6.8; read-out: IC50 against Gly107Ser mutant of FNT
pIC50: −log10 of the molar value.

STRUCTURE STRING	pIC50
CC(=O)C=C(O)C(F)(F)C(F)(F)F	5.09

* * *

Target: Gly107Ser mutant of FNT (Plasmodium falciparum, UniProt O77389, G107S)
Construct: expressed in transfected cells; host or cells: Saccharomyces cerevisiae W303-1A jen1Δ ady2Δ, plasmid pDR196 (PMA promoter)
Experiment: yeast test system, 14C-L-lactate uptake, FNT Gly107Ser mutant expressed in Saccharomyces cerevisiae
Type: cell-based
pIC50: −log10 of the molar value.
pIC50 values by entry

STRUCTURE STRING	pIC50
O=C(/C=C(\O)C(F)(F)C(F)(F)F)c1ccc(Cl)cc1	5.24
Cn1ccc(C(=O)/C=C(\O)C(F)(F)C(F)(F)F)c1	4.82
O=C(/C=C(\O)C(F)(F)C(F)(F)F)c1cc2ccccc2o1	4.82
O=C(/C=C(\O)C(F)(F)C(F)(F)F)/C=C/c1ccccc1	4.60
COc1ccc(CCC(=O)/C=C(\O)C(F)(F)C(F)(F)F)cc1	5.20

* * *

pIC50 values by entry
Target: FNT wild-type (Plasmodium falciparum)
Construct: expressed in transfected cells; host or cells: Saccharomyces cerevisiae W303-1A jen1Δ ady2Δ, plasmid pDR196 (PMA promoter)
Experiment: yeast test system, 14C-L-lactate uptake, FNT wild-type expressed in Saccharomyces cerevisiae
Format: cell-based
Conditions: yeast test system; 15 to 20 min preincubation, 1 mM lactate, pH 6.8; read-out: IC50 against FNT wild-type
Description: The FNT of the wild-type plasmodium (available under accession number PF3D7_0316600 in the data bank PlasmoDB) and of the resistant plasmodia (position of the mutation in the open reading frame: guanine 319 to adenine) were expressed in the yeast Saccharomyces cerevisiae W303-1A jen1Δ ady2Δ from plasmid pDR196 (PMA promoter). […]
pIC50: −log10 of the molar value.
MEASURED METRIC: pIC50

STRUCTURE STRING	NUMBER
O=C(/C=C(\O)C(F)(F)C(F)(F)F)c1cc2ccccc2o1	6.74
COc1ccc(C(=O)/C=C(\O)C(F)(F)C(F)(F)F)cc1	6.85
O=C(/C=C(\O)C(F)(F)C(F)(F)F)c1ccc(Cl)cc1O	6.92
CCOc1ccc(C(=O)/C=C(\O)C(F)(F)C(F)(F)F)c(O)c1	6.62
CC(C)Oc1ccc(C(=O)/C=C(\O)C(F)(F)C(F)(F)F)c(O)c1	6.40
O=C(/C=C(\O)C(F)(F)C(F)(F)F)/C=C/c1ccccc1	6.59
O=C(/C=C(\O)C(F)(F)C(F)(F)F)c1ccc(OCc2ccccc2)cc1O	6.05
COc1ccc(C(=O)/C=C(\O)C(F)(F)C(F)(F)C(F)(F)F)c(O)c1	6.60
CC(=O)C=C(O)C(F)(F)C(F)(F)F	5.72
